# Test system: MOLT-4 leukemia
# test name: NCI tumour cell line growth inhibition, 48 h
measure name: TGI

INSERT INTO assay_data (compound, measured) VALUES
  ('NC(N)=Nc1nc2ccccc2[nH]1', '37.3 µg/mL'),
  ('CN(C)/C=N/S(=O)(=O)c1nn2c(C=O)c(-c3ccc(-c4ccc([N+](=O)[O-])cc4)o3)nc2s1', '14.3 µM'),
  ('Cn1c(=O)c2nc(N3CCCCC3)cnc2n(C)c1=O', '> 100 µM'),
  ('CC[C@@]1(O)C(=O)OCc2c1cc1n(c2=O)Cc2c-1nc1ccccc1c2/C=N/OC(C)(C)C', '0.742 µM'),
  ('CC[C@]12CCCN3CC[C@]4(C(=C(C(=O)OC)C1)Nc1ccccc14)[C@@H]32', '43.7 µM'),
  ('C=C(CN1CCN(c2cccc(F)c2)CC1)c1ccc(C(=O)Nc2ccccc2N)cc1', '2.76 µM'),
  ('S=C1SC(c2ccc(Cl)cc2)(c2ccc(Cl)cc2)c2ccccc21', '> 100 µM'),
  ('Cc1c2cccc-2c(OCCO)cc2c1[nH]c1ccccc12', '20.1 µM'),
  ('CCOC(=O)/C=C/c1ccccn1', '> 100 µM'),
  ('O=c1/c(=C/c2ccc3c(c2)OCO3)sc2nnc(-c3ccco3)n12', '> 100 µM'),
  ('O=c1[nH]c(=O)n(C2CC(O)C(CO)O2)cc1C#Cc1cc(F)cc(F)c1 (configuration not stated)', '> 100 µM'),
  ('CC(=O)Nc1ccc(-c2nc3ccccc3s2)cc1O', '85.6 µM'),
  ('CN1CCCN(C(c2ccccc2)c2ccc(Br)cc2)CC1 (configuration not stated)', '58.2 µM'),
  ('COc1cc(OC)cc(-c2cncn2-c2ccc(-c3nc4cc(OC)c(OC)c(OC)c4s3)cc2)c1', '> 100 µM'),
  ('CC(C)CC(=O)NS(=O)(=O)c1ccccc1', '> 100 µM'),
  ('Cc1cc(C#N)c(Nc2c(C)cccc2[N+](=O)[O-])s1', '> 100 µM'),
  ('Nc1ccc(N)c2c1C(=O)c1c(N)ccc(N)c1C2=O', '> 63.6 µM'),
  ('CC(C)(C)NC1C2CCC(C)(C1O)C2(C)C (configuration not stated)', '> 100 µM'),
  ('CCOP(=O)(OCC)/C(C#N)=C/c1c(C)[nH]c2ccccc12', '> 100 µM'),
  ('COC(=O)NN1C(C)=C(C(=O)OC)C2(CCOC2=O)C1(C)O (configuration not stated)', '> 100 µM'),
  ('CC(=O)OC1COC(Nn2c(=O)[nH]c3ccccc3c2=O)C(OC(C)=O)C1OC(C)=O (configuration not stated)', '> 100 µM'),
  ('O=C(Nc1c(Cl)cc([N+](=O)[O-])cc1Cl)/C(=N\Nc1cccc(Cl)c1)c1c(O)c2ccccc2oc1=O', '> 100 µM');

====

Each item that follows carries a reported TGI.
# System: SR leukemia
# test name: NCI tumour cell line growth inhibition, 48 h
measure name: TGI

INSERT INTO assay_data (compound, measure_name, measured) VALUES
  ('CN(C)/C(N)=N/C(N)=S', 'TGI', '> 100 µM'),
  ('CN(C)/C=N/S(=O)(=O)c1nn2c(C=O)c(-c3ccc(-c4ccc([N+](=O)[O-])cc4)o3)nc2s1', 'TGI', '5.4 µM'),
  ('O=C(c1ccc2c3c(ccc(C(=O)C(F)(F)F)c13)CC2)C(F)(F)F', 'TGI', '> 100 µM'),
  ('Oc1cc2c(cc1O)-c1[nH]ncc1CC2', 'TGI', '> 100 µM'),
  ('N/N=C(\C(=O)Nc1ccc([N+](=O)[O-])cc1)C(C1=Nc2cc([N+](=O)[O-])ccc2NC1)[N+](=O)[O-] (centres undefined)', 'TGI', '> 100 µM'),
  ('CN1OC2OC(=O)OC2[C@H]1[C@H]1O[C@H](c2ccccc2)OC1(C)c1cc(OC(=O)c2ccccc2)ccc1OC(=O)c1ccccc1 (some centres undefined)', 'TGI', '> 50 µM'),
  ('CCN1CCN(C(=O)[C@]23CCC(C)(C)C[C@@H]2C2=CC[C@@H]4[C@@]5(C)C/C(=C/c6cccnc6)C(=O)C(C)(C)[C@@H]5CC[C@@]4(C)[C@]2(C)CC3)CC1', 'TGI', '5.1 µM'),
  ('O=C(/C=C/c1cccnc1)c1ccccc1O', 'TGI', '64.6 µM'),
  ('COc1cc(C2C(C#N)=C(N)Oc3cc(O)ccc32)cc(OC)c1OC (centres undefined)', 'TGI', '> 100 µM'),
  ('O=C(c1ccccc1)c1c(CNCc2ccccc2)n(C(=O)c2ccccc2)c2ccccc12', 'TGI', '80.7 µM'),
  ('CCCCCCCC/C=C/CCCCCCCC1CC(O)C(=O)O1 (centres undefined)', 'TGI', '> 100 µM'),
  ('CC(C)(C)NC1C2CCC(C)(C1O)C2(C)C (centres undefined)', 'TGI', '> 100 µM'),
  ('Cc1cc(C#N)c(Nc2c(C)cccc2[N+](=O)[O-])s1', 'TGI', '> 100 µM'),
  ('O=C(Nc1ccc(Br)cc1F)c1cc(Br)ccc1O', 'TGI', '11.8 µM'),
  ('NC(CCCCNC(=O)C(Cc1ccccc1)NC(=O)OCc1ccccc1)C(=O)NC(CCCCNC(=O)C(Cc1ccccc1)NC(=O)OCc1ccccc1)C(=O)NC(CCCCNC(=O)C(Cc1ccccc1)NC(=O)OCc1ccccc1)C(=O)NC(CCCCNC(=O)C(Cc1ccccc1)NC(=O)OCc1ccccc1)C(=O)NC(CCCCNC(=O)C(Cc1ccccc1)NC(=O)OCc1ccccc1)C(=O)NC(CCCCNC(=O)C(Cc1ccccc1)NC(=O)OCc1ccccc1)C(=O)O (centres undefined)', 'TGI', '> 100 µM'),
  ('Cn1c(=S)sc2nc3ccccc3n2c1=S', 'TGI', '23.2 µM'),
  ('O=C(Nc1c(Cl)cc([N+](=O)[O-])cc1Cl)/C(=N\Nc1cccc(Cl)c1)c1c(O)c2ccccc2oc1=O', 'TGI', '> 100 µM'),
  ('Oc1cc2ccccc2cc1-c1n[nH]c(=S)n1-c1ccc(Cl)cc1', 'TGI', '> 100 µM'),
  ('CCN(CC)c1nc(N(C)C)c2cc(OC)ccc2n1', 'TGI', '76.9 µM');

====

# System: SF-295 CNS
# test name: NCI tumour cell line growth inhibition, 48 h
Measured TGI values are reported for all entries that follow.
measure name: TGI

INSERT INTO assay_data (compound, measure_name, measured) VALUES
  ('Cc1ccc(C)c(NC(=O)C(Cc2c[nH]c3ccccc23)NC(=O)OCc2ccccc2)c1 (configuration not stated)', 'TGI', '> 100 µM'),
  ('Oc1cc2c(cc1O)-c1[nH]ncc1CC2', 'TGI', '> 100 µM'),
  ('CCOC1SC(SC)=NN1C(=O)C(OC(C)=O)C(OC(C)=O)C(OC(C)=O)C(OC(C)=O)C(=O)N1N=C(SC)SC1OCC (configuration not stated)', 'TGI', '> 100 µM'),
  ('OCSc1nn(CO)c(=S)s1', 'TGI', '71.9 µM'),
  ('O=S(=O)(NCCCNc1cc(-c2cn(-c3ccccc3)nc2-c2cccc(O)c2)ccn1)c1ccc(Cl)cc1', 'TGI', '3.29 µM'),
  ('O=C(N/C(=C\c1ccccc1)C1Nc2ccccc2C(=O)O1)c1ccccc1 (configuration not stated)', 'TGI', '> 100 µM'),
  ('Cc1ccc(C2=C(c3ccccc3)C(O)(c3ccc(C)cc3)C(c3ccccc3)=C2c2ccc(C)cc2)cc1', 'TGI', '> 100 µM'),
  ('Cc1nc2cc(N)c(Cl)cc2[nH]1', 'TGI', '> 100 µM'),
  ('O=C([O-])c1ccccc1Nc1ccccc1[O-].[Ni+3].[OH3+].[OH3+].[OH3+]', 'TGI', '> 100 µM'),
  ('N#CC(c1cc(Cl)ncn1)c1nc2ccccc2s1 (configuration not stated)', 'TGI', '43.7 µM'),
  ('Cc1c2cccc-2c(OCCO)cc2c1[nH]c1ccccc12', 'TGI', '14.7 µM'),
  ('COc1ccc([C@@H]2CC(=O)NCCCCNCCCN2)cc1', 'TGI', '> 100 µM'),
  ('Cc1cc2[nH]c3c(C#N)c(-c4ccccc4)c(CN4CCOCC4)c(=O)n3c2cc1C', 'TGI', '> 100 µM'),
  ('COC(=O)[C@@H]1C[C@]2(CC=C(C)C)c3ccccc3N(S(=O)(=O)c3ccccc3)[C@@H]2N1C(=O)OC', 'TGI', '> 100 µM'),
  ('CCOC(=O)C1(Cc2ccccc2)Cc2ccccc2C1=O (configuration not stated)', 'TGI', '> 100 µM'),
  ('COc1cc2c3c(c4c5ccccc5[nH]c4c2c(OC)c1OC)C(=O)N(CCN1CCCCC1)C3=O', 'TGI', '3.13 µM'),
  ('CCOP(=O)(OCC)/C(C#N)=C/c1c(C)[nH]c2ccccc12', 'TGI', '> 100 µM'),
  ('CC(Oc1ccc2cc(C(=O)c3ccccc3)c(=O)oc2c1)C(=O)O (configuration not stated)', 'TGI', '> 100 µM'),
  ('CCc1ccc(Nc2cc(C)nc3nc(C)nn23)cc1', 'TGI', '> 100 µM'),
  ('O=C1O[C@H]2[C@@H]3OC(=O)c4cc(O)c(O)c(O)c4-c4c(cc(O)c(O)c4O)C(=O)OC[C@H]2O[C@@H](OC(=O)c2cc(O)c(O)c(O)c2)[C@@H]3OC(=O)c2cc(O)c(O)c3c2[C@@H]2C1=CC(=O)C(O)(O)C2(O)O3 (some centres not stated)', 'TGI', '> 100 µM'),
  ('O=C(O)c1cc(Sc2ccc([N+](=O)[O-])c(C(=O)O)c2)ccc1[N+](=O)[O-]', 'TGI', '> 100 µM'),
  ('CC(NC(=O)C(N)CC(=O)O)NC(=O)N1CCCC1 (configuration not stated)', 'TGI', '> 100 µM'),
  ('C/C(=N\NC(=O)c1ccncc1)c1ccc(O)cc1O', 'TGI', '6.69 µM'),
  ('O=c1/c(=C/c2ccc3c(c2)OCO3)sc2nnc(-c3ccco3)n12', 'TGI', '> 100 µM'),
  ('COc1cc(NC(N)=NCCC(C)(C)c2ccc(C(F)(F)F)cc2)ncc1C#N', 'TGI', '3.06 µM'),
  ('Oc1cc2ccccc2cc1-c1n[nH]c(=S)n1-c1ccc(Cl)cc1', 'TGI', '> 100 µM'),
  ('O=C(Nc1ccc(Br)cc1F)c1cc(Br)ccc1O', 'TGI', '3.56 µM'),
  ('COc1cc(C2C(C#N)=C(N)Oc3cc(O)ccc32)cc(OC)c1OC (configuration not stated)', 'TGI', '> 100 µM'),
  ('CCCCCC(/C=N/N)C(O)(C(F)(F)F)C(F)(F)F (configuration not stated)', 'TGI', '8.6 µM'),
  ('Nc1nc2c(c3cnccc13)C(c1cccc(Cl)c1)Cc1cnccc1-2 (configuration not stated)', 'TGI', '0.914 µM'),
  ('CC(=O)OC1COC(Nn2c(=O)[nH]c3ccccc3c2=O)C(OC(C)=O)C1OC(C)=O (configuration not stated)', 'TGI', '> 100 µM'),
  ('C=C(C(=O)O)[C@@H]1C[C@@H]2O[C@H]1CC(C)=CCC/C(C)=C/CC[C@@]2(C)O', 'TGI', '> 100 µM');
